Each entry below carries its recorded activity change, negative = inhibition.
assayName: NFAT Signaling Pathway (AID 444);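 further: carbachol stimulus at about its EC50 of 1 µM final; on the % scale 0 is the no-effect control and ±100 the full control effect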
conditionInfo: Jurkat NFAT-bla M1, carbachol, beta-lactamase ratio, 5 h; at 7.69 µM (top of the series) unless noted
Protocol: NCGC Assay Overview: The nuclear factor of activated T cells (NFAT) family of transcription factors has been found primarily in most immune system cells and some other non-immune cells. NFAT plays the immunomodulatory role, primarily in T-cell activation and differentiation. […] NCGC Assay Protocol Summary: The cells were prepared in RPMI 1640 medium containing 0.1% dialyzed FBS and 25 mM HEPES at 1.6 x 10^6cell/ml. […] The %Activity was determined from the ratio of 460nm/530nm. […]
Records with an inconclusive call do not appear. Active and inactive are the calls of the source. The call rests on the fitted dose curve; in most records, active means well fitted curve in either direction with a large enough effect (not every such curve was filed as active); inconclusive means small, poorly fitted or top-dose-only effect, or another doubt; inactive means flat fitted curve, though single readings scatter.

smiles | activity change, negative = inhibition
O=C(O)[C@@H]1[C@@H](C(=O)O)[C@]23C[C@@]2(C(=O)O)[C@]2(C(=O)O)CCC3=C3CCCC312 | 0.691% (inactive)
O=C(O)c1cc2ccccc2c(S(=O)(=O)O)c1O | 7.56% (inactive)
O=S(=O)(O)c1cc(O)c2c(N=Cc3ccccc3O)cc(S(=O)(=O)O)cc2c1 | 8.24% (inactive)
c1cc(CSSCc2ccncc2)ccn1 | 12.2% (inactive)
COc1ccc2nc(NCN3C(=O)c4ccccc4C3=O)sc2c1 | -16% (inactive)
Nc1ccc2[nH]cc(CCC(=O)O)c2c1 | 4.67% (inactive)
COc1ccc(-n2c(=O)c(-c3cccs3)nc3cnc(Oc4ccccc4)nc32)cc1 | -26.9% (inactive)
C/C(=N/NC(=O)c1ccncc1)c1ccccc1Cl | 8.3% (inactive)
CN1CCC[C@@H]1c1cccnc1.O=C(O)c1ccccc1O.O=C([OH2+])c1ccccc1O.O=C([OH2+])c1ccccc1O.O=C([OH2+])c1ccccc1O.[Mn] | -2.84% (inactive)
Cc1onc(-c2c(F)cccc2Cl)c1C(=O)N[C@@H]1C(=O)N2[C@H]1SC(C)(C)[C@H]2C(=O)O | 13.8% (inactive)

###

targetUnderTest: Cytochrome P450 3A4 (Homo sapiens)
assayName: qHTS Assay for Inhibitors and Substrates of Cytochrome P450 3A4 (AID 884); further: nearly all actives have a fitted effect of over 50% in size
conditionInfo: recombinant CYP3A4, Luciferin-PPXE luminescence; series mostly up to 57.1 µM
Records with an inconclusive call do not appear. Calls of active or inactive are those of the source. Calls follow the shape of the dose curve; as a rule, active = well fitted inhibition curve with a large enough effect; inconclusive = small, poorly fitted or top-dose-only effect; inactive = no such curve, though single readings can be large or run the other way.
Outcomes: 1.0 (active), 0.0 (inactive)

smiles | classLabel
Cc1cc(=O)oc2cc(O)cc(O)c12 | 1.0
COCCn1c(=O)c(CCc2ccccc2)nc2cnc(Oc3cccc(Cl)c3)nc21 | 1.0
CCCCOC(=O)COc1ccc(Cl)cc1Cl | 0.0
Cc1cccnc1 | 0.0
COc1ccccc1CCn1c(=O)c(-c2ccccc2)nc2cncnc21 | 1.0
Nc1nc(SCc2ccccc2[N+](=O)[O-])c2[nH]cnc2n1 | 1.0
CCCCCCc1ccc(-c2ccc(C#N)cc2)cc1 | 0.0
CCNc1ncc2nc(CCc3ccccc3)c(=O)n(-c3ccc(OC)cc3)c2n1 | 1.0
c1ccc(SC(Sc2ccccc2)c2ccc3c(c2)OCO3)cc1 | 1.0
C=Cc1cccc(C)c1 | 0.0
Cc1cc2nc(N)sc2cc1C | 1.0
N=c1ccn2c(n1)O[C@@H]1[C@@H](O)[C@H](CO)O[C@H]12 | 0.0
Cc1c(N)cccc1Cl | 0.0
Cc1ccc(Nc2nnc(-c3ccc4c(c3)OCO4)o2)c(C)c1 | 1.0
O=C(CC(=O)c1ccncc1)c1ccccc1 | 1.0
O=[N+]([O-])c1ccc(F)cc1F | 0.0
C[C@]1(c2ccccc2)O[C@@H]2C[C@@H]3[C@@H]4CCC5=CC(=O)C=C[C@@]5(C)[C@]4(F)[C@H](O)C[C@]3(C)[C@@]2(C(=O)CO)O1 | 1.0
COc1cc2nc(N3CCN(C(=O)OCc4ccccc4)[C@H](C(=O)NC(C)(C)C)C3)nc(N)c2cc1OC | 1.0
CC(=O)CC(=O)Nc1ccccc1 | 0.0
c1ccc(COCc2ccccc2)cc1 | 0.0
c1ccc2c(c1)-c1nc3ccccc3cc1[C@H]2N1CCOCC1 | 1.0
COc1cc2c(cc1OC)[C@H](c1ccccc1)CN(C)CC2 | 0.0
CS(=O)(=O)Nc1cccc(-c2nc(NCc3cccnc3)c3ccccc3n2)c1 | 1.0
Nc1nc(SCCc2ccccc2)c2[nH]cnc2n1 | 1.0
COCCn1c(=O)c(-c2cc(F)cc(F)c2)nc2cnc(Oc3ccc(OC)cc3)nc21 | 1.0
CCCCNCC | 0.0
O=C(O)c1cc(N=Nc2ccc([N+](=O)[O-])cc2)ccc1O | 0.0
COc1ccc(C(=O)N/N=C2/C(=O)c3c(C)cc(C)cc3CC2(C)C)cc1 | 1.0
O=C1OC(=O)c2ccccc21 | 0.0
Cn1c(Sc2ccc(-c3cccnc3)n2C)ccc1-c1cccnc1 | 1.0
O=c1c(-c2ccccc2)nc2cnc(N3CCNCC3)nc2n1Cc1ccc(F)cc1 | 1.0
COc1ccccc1-c1ccc2ncnc(NCc3cccnc3)c2c1 | 1.0
Cc1cc(Cl)nc2ccc(Cc3ccc4nc(Cl)cc(C)c4c3)cc12 | 1.0
C[Si](C)(C)Cl | 0.0
Oc1ccc(O)c2c(O)cccc12 | 0.0
O=[N+]([O-])c1cc(N(CCO)CCO)ccc1NCCO | 0.0
O=C(O)/C=C\C(=O)Nc1ccc2c(c1)C(=O)c1cc(F)ccc1-2 | 1.0
CC(/C=C/C=C(C)/C=C/C(=O)O)=C\C=C\C=C(C)\C=C\C=C(C)\C=C\C(=O)O | 0.0
C=CC(=O)CC | 0.0
